tested on: HCT-116 colon; test: NCI tumour cell line growth inhibition, 48 h
Where a SMILES comes first, the peptide text is derived from it. [ ]: non-standard residue; d: D form.
observable: TGI

Previously resolved entries follow.
Query: Report measured TGI; entry is CC1=CC(=O)N2C(OC[C@@H]2c2ccccc2)O1 (stereo not given in full)
Response: > 100 µM

Query: Item `O=C(NNc1nc(-c2ccccc2)cs1)Nc1ccccc1` : provide TGI
Response: 58.5 µM

Query: State its TGI: `COc1ccc(/C=C/C(=O)c2ccc(Nc3nc(Nc4ccc(F)cc4)nc(Nc4ccc(F)cc4)n3)cc2)cc1`
Response: 18.3 µM

Query: State its TGI: `N#Cc1cc2c(cc1Cl)SC(=Nc1ccccc1)N(S(=O)(=O)c1ccc(Br)s1)S2(=O)=O`
Response: 33.7 µM

Query: Please list TGI recorded for the compound `CC(C)(CO)CNc1cc(Cl)nc(N)n1`
Response: > 100 µM

More entries:
Query: Given the compound `Cc1ccc(C)c(NC(=O)C(=O)Nn2c(=S)[nH]c3ccccc3c2=O)c1` , write its reported TGI.
Response: > 100 µM

Query: State, in one line, measured TGI of `COC(=O)/C=C\C(C#N)(C#N)N=Cc1ccc(Br)cc1`
Response: > 60.5 µM

Query: Could you please provide reported TGI for COc1ccc(C2C3=C(COC3=O)N(CCO)c3cc4c(cc32)CCC4)cc1 (stereo not given) ? Thanks!
Response: > 50 µM

Query: Determine its reported TGI: `C=CCCC(=O)CC(=O)OCc1ccccc1`
Response: > 100 µM

Query: Consider the compound `CSc1c(C)n([O-])c2cc(Cl)c(Cl)cc2[n+]1=O` . State its measured TGI.
Response: 32 µM

Query: For the compound CSCC[C@H](NC(=O)[C@@H](N)CC(N)=O)C(=O)N[C@@H](Cc1c[nH]c2ccccc12)C(=O)N[C@@H](CCC(N)=O)C(=O)N[C@@H](CCC(=O)O)C(=O)N[C@H](C(=O)NCC(=O)N[C@@H](CCCCN)C(=O)N[C@H](C)C(=O)O)C(C)C (H-NMWQEVGK[dA]-OH) , report TGI.
Response: > 100 µM

Query: Let me know recorded TGI for CC(C)(C)CC(C)(C)NCC(O)COc1ccc(C(C)(C)c2ccc(OCC(O)CNC(C)(C)CC(C)(C)C)cc2)cc1 (stereo not given) , thanks.
Response: 5.38 µM

Query: Check the records and state TGI for `Cc1cc2nc(-c3ccc(O)c(O)c3)n(Cc3ccc(O)c(O)c3)c2cc1C`
Response: 35.1 µM

Query: Look up and report measured TGI for this entry: `C#C[C@@H](CCCC)OC(=O)N[C@H](C)c1ccccc1`
Response: > 100 µM

Query: Answer with the recorded TGI for the compound listed here: `O=C(CN1CCN(c2ccccn2)CC1)N1CCCn2c1nc1ccccc1c2=O`
Response: > 100 µM

Numbers sourced from PubChem BioAssay (NCI).
